Target: calf thymus intracellular vitamin D receptor (VDR) (Bos taurus)
Construct: calf thymus intracellular vitamin D receptor (VDR); from tissue; host or cells: calf thymus
Sequence (Q28037 whole entry): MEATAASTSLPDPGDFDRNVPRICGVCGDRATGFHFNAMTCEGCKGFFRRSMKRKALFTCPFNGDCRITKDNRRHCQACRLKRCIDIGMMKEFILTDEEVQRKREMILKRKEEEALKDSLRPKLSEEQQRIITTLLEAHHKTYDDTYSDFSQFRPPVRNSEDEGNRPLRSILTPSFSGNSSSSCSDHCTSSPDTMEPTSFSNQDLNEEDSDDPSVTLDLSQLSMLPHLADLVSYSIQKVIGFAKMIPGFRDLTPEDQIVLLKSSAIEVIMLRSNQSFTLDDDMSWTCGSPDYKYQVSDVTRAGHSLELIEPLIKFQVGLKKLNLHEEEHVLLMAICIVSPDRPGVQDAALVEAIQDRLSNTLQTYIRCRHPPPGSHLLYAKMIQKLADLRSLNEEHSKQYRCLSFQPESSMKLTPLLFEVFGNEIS
Assay: Affinity towards the calf thymus intracellular vitamin D receptor, replacement of 3H-calcitriol
Type: binding
Settings: compound dissolved in ethanol, 10^-13 to 10^-7 M; 3H-calcitriol bound to VDR; read-out: IC50 value, i.e. 50% replacement of 3H-calcitriol
Source text: In this assay ^3 H-calcitriol (1α,25-dihydroxycholecalciferol), which is specifically bound to the VDR, is replaced by the tested compound.
Recorded endpoint: pIC50
Field pIC50 (float): negative decimal logarithm of the concentration in molar.

-- ask Provide pIC50 value for the following compound: C=C1/C(=C\C=C2/CCC[C@]3(CO)[C@@H]([C@H](C)CCCC(C)(C)O)CC[C@@H]23)C[C@@H](O)C[C@@H]1O
-- reply 9.60
